- System: UniProt P35869
- Test Summary: DRE-Luciferase Reporter Assay (Alternate Method), Example 1B
- Condition Context: concentration which inhibits half of the luciferase activity induced by AHR activating ligand; DRE-luciferase reporter cell line
pIC50: −log10 of the molar value.

>  <Compound>
CC(C)c1cnn2c(N[C@@H]3CCc4[nH]c5cccnc5c4C3)nc(-c3cncc(F)c3)nc12

>  <pIC50>
5.82 to 6.00

$$$$
>  <Compound>
CC(C)c1cnn2c(N[C@H]3CCc4[nH]ncc4C3)nc(-c3cncc(F)c3)nc12

>  <pIC50>
5.82 to 6.00

$$$$
>  <Compound>
COCC[C@@H](C)c1cnn2c(N[C@@H]3CCc4[nH]c5ccccc5c4C3)nc(-c3cncc(F)c3)nc12 [Compound I-65b]

>  <pIC50>
> 6.30

$$$$
>  <Compound>
CC(C)c1cnn2c(N[C@@H]3CCc4c(ccnc4N)C3)nc(-c3cncc(F)c3)nc12 [Compound I-63a]

>  <pIC50>
< 5.82

$$$$
